System: HCMV recombinant mutant virus whose genome contains the prokaryotic beta-glucuronidase gene
test: microbe, parasite or virus in culture
Assay type: cell-based, human cytomegalovirus
measurement-parameters: Human betaherpesvirus 5, Fibroblast, read-out: IC50 ug/ml HCMV, HCMV, human foreskin fibroblasts
Description: Microtiter plate assay. […] At 96 hours post-infection, the infected cell lysates are prepared (using 50mM sodium phosphate [pH7.0] containing 0.1% Triton X-100 and 0.1% sarkosyl) and assayed for beta-glucuronidase activity using a substrate for the enzyme which when cleaved yields either a product which can be measured colorimetrically in a spectrophotometer or fluorescently in a microfluorimeter. […]
hey, just use T if measured IC50 is less than 2 µg/mL, otherwise F

# count of solved cases: 5
compound	assigned-class
COc1cc(C)c(Cl)cc1NC(=S)Nc1ccc(NC(=O)c2ccccc2F)cc1Cl	F
Cc1ccc([C@H](C)NC(=S)Nc2ccc(NC(=O)c3ccccc3F)cc2)cc1	F
O=C(Nc1ccc(NC(=S)Nc2cccc(S(=O)(=O)CCO)c2)cc1)c1ccccc1F	F
COc1cc(OC)c(NC(=S)Nc2ccc(NC(=O)c3ccccc3SC)cc2)cc1Cl	F
C[C@H](NC(=S)Nc1ccc(NC(=O)c2nccc3ccccc23)cc1)c1ccc(Br)cc1	F

(Q) Dear colleague, could you confirm whether IC50 of COc1cc(OC)c(NC(=S)Nc2ccc(NC(=O)c3ccccc3C(=O)O)cc2)cc1Cl falls below 2 µg/mL? Thanks.
(A) F

(Q) Dear colleague, could you confirm whether IC50 of CS(=O)(=O)c1ccc(NC(=S)Nc2ccc(NC(=O)c3c(F)cccc3F)cc2)cc1Cl falls below 2 µg/mL? Thanks.
(A) T

(Q) Dear colleague, could you confirm whether IC50 of CN(C)c1cc(CNC(=S)Nc2ccc(NC(=O)c3ccccc3F)cc2)cc(C(F)(F)F)c1 falls below 2 µg/mL? Thanks.
(A) F

(Q) Dear colleague, could you confirm whether IC50 of COc1cc(OC)c(NC(=S)Nc2ccc(NC(=O)c3cccc(O)c3)cc2)cc1Cl falls below 2 µg/mL? Thanks.
(A) F

(Q) Dear colleague, could you confirm whether IC50 of C[C@@H](NC(=S)Nc1ccc(NC(=O)c2ccccc2F)cc1)c1ccc(Br)cc1 falls below 2 µg/mL? Thanks.
(A) F

(Q) Dear colleague, could you confirm whether IC50 of CCCCOc1ccc(NC(=S)Nc2ccc(NC(=O)c3ccccc3F)cc2)cc1Cl falls below 2 µg/mL? Thanks.
(A) F

(Q) Dear colleague, could you confirm whether IC50 of CN1CCC(N(C)c2ccc(NC(=S)Nc3ccc(NC(=O)c4c(F)cccc4F)cc3)cc2Cl)C1 (centres unmarked) falls below 2 µg/mL? Thanks.
(A) T

(Q) Dear colleague, could you confirm whether IC50 of COc1c(Cl)cc(NC(=S)Nc2ccc(NC(=O)c3cccc(F)c3)cc2)cc1Cl falls below 2 µg/mL? Thanks.
(A) T

(Q) Dear colleague, could you confirm whether IC50 of COc1cc(OC)c(NC(=S)Nc2ccc(NC(=O)c3cccc(OCCN(C)C)c3)cc2)cc1Cl falls below 2 µg/mL? Thanks.
(A) F

(Q) Dear colleague, could you confirm whether IC50 of Cc1ccc(C(C)NC(=S)Nc2ccc(NC(=O)c3ccccc3F)cc2)cc1 (centres unmarked) falls below 2 µg/mL? Thanks.
(A) T

----------
System: VZV strain Ellen
test: VZV antiviral (ELISA) assay
Format: cell-based
measurement-parameters: Human alphaherpesvirus 3, HFF, read-out: IC50 (ug/ml) VZV, VZV strain Ellen, HFF cells, ELISA
reported-property: IC50 (µg/mL)
Write the value in µg/mL as a bare number.

Reference set (3 entries):
compound	IC50 / µg/mL
CC(NC(=S)Nc1ccc(NC(=O)c2ccccc2F)cc1)c1ccc(Br)cc1 (centres unmarked)	0.2
CC(NC(=S)Nc1ccc(NC(=O)c2cc3ccccc3cn2)cc1)c1ccc(C#N)cc1 (centres unmarked)	0.05
CC(NC(=S)Nc1ccc(NC(=O)c2ccc(Cl)cc2)cc1)c1ccc(F)cc1 (centres unmarked)	0.3

(Q) Item under review: O=C(Nc1ccc(NC(=S)NCCc2cccc(Cl)c2)cc1)c1ccccc1F . Reported IC50?
(A) 9

(Q) Item under review: C[C@H](NC(=S)Nc1ccc(NC(=O)c2ccccc2F)cc1)c1ccc(Cl)cc1 . Reported IC50?
(A) 0.03
